system: SKOV3; experiment: Primary qHTS to identify gynecologic anti-cancer compounds using libraries of approved drugs and bioactive compounds (AID 1345084); details: Gynecologic cancer cell panel viability, ATPlite luminescence, 48 h; series mostly up to 57.5 µM; further: nearly all actives have a fitted effect of over 55% in size
Records with an inconclusive call do not appear. Active and inactive are the calls of the source. The call rests on the fitted dose curve; in most records, active means well fitted cell-killing curve with a large enough effect; inconclusive means small, poorly fitted or top-dose-only effect, or effect the other way; inactive means flat fitted curve, though single readings scatter.
Outcomes: yes (1) for active, no (0) for inactive

>>> category_label("CCc1c(Cl)c(O)c(Cl)c(O)c1C(=O)O[C@H]1[C@H](O)[C@H](OC)[C@H](OC/C2=C\\C=C\\C[C@H](O)/C(C)=C\\[C@H](CC)[C@@H](O[C@@H]3OC(C)(C)[C@@H](OC(=O)C(C)C)[C@H](O)[C@@H]3O)/C(C)=C/C(C)=C/C[C@@H]([C@@H](C)O)OC2=O)O[C@@H]1C")
"no (0)"
>>> category_label("C/C=C(\\C)C(=O)O[C@H]1C[C@](C)(O)[C@H]2CC=C(C)[C@H]2[C@@H]2OC(=O)[C@H](C)[C@H]21")
"no (0)"
>>> category_label("CC1(C)SCCN(S(=O)(=O)c2ccc(Oc3ccncc3)cc2)[C@H]1C(=O)NO")
"no (0)"
>>> category_label("c1ccc(-c2cnn3cc(-c4ccc(OCCN5CCOCC5)cc4)cnc23)cc1")
"yes (1)"
>>> category_label("Cc1noc(C)c1-c1cc(O)cc(C(O)c2ccccc2)c1 (stereo unspecified)")
"yes (1)"
>>> category_label("COc1cc(C(C)C)c(Oc2cnc(N)nc2N)cc1I")
"no (0)"
>>> category_label("O=c1cc(NCCCN[C@@H]2CCOc3c(Br)cc(Br)cc32)[nH]c2ccsc12")
"no (0)"
>>> category_label("C=C1CCC[C@]2(C)CC/C(=C(/CO)C(=O)OC)C[C@@H]12")
"no (0)"
>>> category_label("Cc1cc(C)cc(-c2cnc3cc(Cl)c(-c4cccc(O)c4)cc3c2OCCCN)c1")
"no (0)"
>>> category_label("O=C([C@@H](Cc1cccc(C(F)(F)F)c1)NS(=O)(=O)c1cc(F)c2c(c1)CCNC2)N1CCCC1")
"no (0)"
>>> category_label("C=C1C(=O)O[C@@H]2[C@H]1CCC(C)=C(CCC(=O)O)[C@@]2(C)O")
"no (0)"
>>> category_label("CC(C)(Cc1ccccc1)NCC(O)c1ccc(O)c(NS(C)(=O)=O)c1 (stereo unspecified)")
"no (0)"
>>> category_label("COC1CC(O[C@H]2CC[C@]3(C)C4CC[C@]5(C)C(C6=CC(=O)OC6)=CCC56OC46CC[C@@H]3C2)OC(C)C1O[C@@H]1O[C@H](CO[C@@H]2O[C@H](CO)[C@@H](O)[C@H](O)[C@H]2O)[C@@H](O)[C@H](O)[C@H]1O (stereo partly specified)")
"yes (1)"
>>> category_label("C=C1C(=O)OC2C3=C(C)C(=O)CC3C(C)CC(O)C12 (stereo unspecified)")
"no (0)"
>>> category_label("COC1C(OC(=O)/C=C/C=C/C=C/C=C/C(=O)O)CCC2(CO2)C1C1(C)OC1CC=C(C)C (stereo unspecified)")
"no (0)"
>>> category_label("CC(OC1OCCN(Cc2n[nH]c(=O)[nH]2)C1c1ccc(F)cc1)c1cc(C(F)(F)F)cc(C(F)(F)F)c1 (stereo unspecified)")
"no (0)"
>>> category_label("O=C(NCCO)c1cccc(-c2cc(Nc3ccc(OC(F)(F)F)cc3)ncn2)c1")
"no (0)"
>>> category_label("Nc1nc(Nc2ccc3c(c2)CCC(N2CCCC2)CC3)nn1-c1cc2c(nn1)-c1ccccc1CCC2 (stereo unspecified)")
"yes (1)"
>>> category_label("Cc1c[nH]c2ncnc(N3CCC(CN)(C(=O)Nc4cccc(OC(=O)N(C)C)c4)CC3)c12")
"yes (1)"
>>> category_label("OC(CC1c2ccccc2-c2cncn21)C1CCCCC1 (stereo unspecified)")
"no (0)"
>>> category_label("Cc1cc2c(N3CCCC3)nc(N3CCCC3)nc2n1C")
"no (0)"
>>> category_label("CNc1cccc(CCOc2ccc3c(c2)CN(CC(F)(F)F)C(=O)[C@H](CC(=O)O)C3)n1")
"yes (1)"
>>> category_label("C/C=C/[C@@H]1C=C[C@@H]2C[C@H](C)CC[C@H]2[C@]1(C)/C(O)=C1/C(=O)[C@@H](CO)N(C)C1=O")
"no (0)"
>>> category_label("O=C(OC1CN2CCC1CC2)N1CCc2ccccc2C1c1ccccc1 (stereo unspecified)")
"no (0)"
>>> category_label("CC1(C=O)CCCC2(C)C1CCC13CC(CO)C(CCC12)C3 (stereo unspecified)")
"no (0)"
>>> category_label("O=C(Nc1ccc2[nH]c(=O)oc2c1)C(=O)N1CCC(Cc2ccc(F)cc2)CC1")
"no (0)"
>>> category_label("C=C(C)C(=O)OC1CC2(C)OC(=CC2=O)C(=C)CC2OC(=O)C(=C)C12 (stereo unspecified)")
"yes (1)"
>>> category_label("COc1cc2c(cc1OCCCN1CCCC1)N=C(N)C21CCC1")
"no (0)"
>>> category_label("O=C(NCC1(c2nc(-c3ccccc3)cs2)CCOCC1)c1cccc(-c2noc(C(F)(F)F)n2)c1")
"no (0)"
>>> category_label("CCCOc1ccc(S(=O)(=O)N2CCN(CCO)CC2)cc1-c1nc2c(CCC)cn(CC)c2c(=O)[nH]1")
"no (0)"
>>> category_label("NC(=O)c1cccc2[nH]c(-c3ccc(C4CCCN4)cc3F)nc12 (stereo unspecified)")
"yes (1)"
>>> category_label("CC#C[C@@H](CC(=O)O)c1ccc(OCc2cccc(-c3ccc(C(F)(F)F)cc3)c2)cc1")
"no (0)"
>>> category_label("O=C(NCCN1CCN(c2cccc3c2OCCO3)CC1)c1ccc(F)cc1")
"no (0)"
>>> category_label("C=C1C(=O)O[C@@H]2/C=C(/C)[C@@H](OC(C)=O)C/C=C(\\C)C[C@@H](OC(=O)/C(=C/CO)CO)[C@@H]12")
"no (0)"
>>> category_label("C=C(C(=O)OC)[C@@H]1CC=C2C=CC(=O)[C@H](C)[C@@]2(C)C1")
"no (0)"
>>> category_label("COc1ccc([C@H](Cc2ccncc2)c2ccccc2)cc1OC1CCCC1")
"no (0)"

----------
system: Hek293T; test: Primary qHTS to identify gynecologic anti-cancer compounds using libraries of approved drugs and bioactive compounds (AID 1345084); conditions: Gynecologic cancer cell panel viability, ATPlite luminescence, 48 h, control line for the selectivity index; series mostly up to 57.5 µM; further: nearly all actives have a fitted effect of over 55% in size; further: potency means the concentration at half of the fitted maximal effect
Results filed as inconclusive are left out. Active and inactive are the calls of the source. The call rests on the fitted dose curve; in most records, active means well fitted cell-killing curve with a large enough effect; inconclusive means small, poorly fitted or top-dose-only effect, or effect the other way; inactive means flat fitted curve, though single readings scatter.
observable: Potency

>>> value("C=CC(C)(C)c1[nH]c2ccccc2c1C[C@@H]1NC(=O)[C@H](C)NC1=O")
"inactive"
>>> value("O=C(C1CCCCC1)N(CCN1CCN(c2ccccc2O)CC1)c1ccccn1")
"inactive"
>>> value("Cc1ccc(N2CCN(S(=O)(=O)N3CCCCC3)CC2)c(C)c1")
"inactive"
>>> value("COc1ccc(OC)c(-c2ccc(NC(=O)c3ccncc3F)cc2)c1")
"inactive"
>>> value("Fc1ccc2c(CCNCc3cccc(OCC(F)(F)C(F)F)c3)c[nH]c2c1")
"inactive"
>>> value("COc1cc(C(C)C)c(Oc2cnc(N)nc2N)cc1I")
"inactive"
>>> value("Cn1ncc(Cl)c1-c1cc(C(=O)N[C@H](CN)Cc2cccc(F)c2)sc1Cl")
"2.82 µM (active)"
>>> value("N#Cc1ccc(O[C@@H]2c3ccccc3C[C@H]2N2CCC[C@@H](N)C2)c(Cl)c1")
"inactive"
>>> value("C/C(=C/CO)CCC1C(C)CCC2C(C)(C)CCCC12C (stereo unspecified)")
"inactive"
>>> value("CC1(C)CCC(C)(C)c2cc(C#Cc3ccc(C(=O)O)cc3)ccc21")
"inactive"
>>> value("CCc1ccccc1OC[C@@H](O)CN[C@H]1CCCc2ccccc21")
"inactive"
>>> value("N#CC(CCCN1CCC(O)(c2ccc(Cl)cc2)CC1)(c1ccccc1)c1ccccc1")
"inactive"
>>> value("CCOC(=O)N1CCC(N2CCC[C@@H](NC(=O)c3ccccc3C)C2)CC1")
"inactive"
>>> value("COc1ccc2cc3c(NC(=O)c4ccco4)nn(C)c3nc2c1")
"inactive"
>>> value("CC(C)(C)c1ccc2c(c1)CC[C@H]2NC(=O)Nc1cccc2[nH]ncc12")
"inactive"
>>> value("CNS(=O)(=O)c1ccccc1Nc1nc(Nc2ccc(N3CCN(C)CC3)cc2OC)ncc1Br")
"14.1 µM (active)"
>>> value("CCOc1ccc(-n2c(C(C)N(Cc3cccnc3)C(=O)Cc3ccc(F)c(C(F)(F)F)c3)nc3ncccc3c2=O)cc1 (stereo unspecified)")
"inactive"
>>> value("CCOC(=O)N1CCC(CN(Cc2ccc(Cl)cc2)Cc2ccc([N+](=O)[O-])s2)C1 (stereo unspecified)")
"inactive"
>>> value("CCOc1ccc(-n2c([C@@H](C)N(Cc3cccnc3)C(=O)Cc3ccc(OC(F)(F)F)cc3)nc3ncccc3c2=O)cc1")
"inactive"
>>> value("CN1CCN(C2=Nc3ccccc3Nc3ccc(Cl)cc32)CC1")
"inactive"
>>> value("COc1ccc2nc3n[nH]c(C)c3c(NCCOCCO)c2c1")
"inactive"
>>> value("Cc1c(C(=O)NCc2cccnc2)nn(-c2ccc(Cl)cc2Cl)c1-c1ccc(Cl)cc1")
"inactive"
>>> value("COc1cccc(NCCC2(c3ccccc3)CC(C)(C)OC(C)(C)C2)c1")
"inactive"
>>> value("CC(C)(O)c1ccc2c(c1)ncn2-c1cccc(-c2ccccc2C#N)c1")
"inactive"
>>> value("COc1ccccc1C(=O)Nc1cc2c(cc1N1CCCC1)n(C)c(=O)n2C")
"inactive"
>>> value("C=C1C(=O)O[C@@H]2C(OC(=O)/C(C)=C\\C)/C(C)=C\\C(=O)/C=C(\\C)C[C@H](O)[C@@H]12 (stereo partly specified)")
"11.2 µM (active)"
>>> value("COc1c2c(nc3occc13)C(CC=C(C)C)(OC)C(O)CC2 (stereo unspecified)")
"inactive"
>>> value("CC1CCC(=O)CC(SCC(O)C(=O)O)CCC(=O)O1 (stereo unspecified)")
"inactive"
>>> value("CC1CCCC(O)CCC/C=C/c2cc(OS(=O)(=O)O)cc(O)c2C(=O)O1 (stereo unspecified)")
"inactive"
>>> value("Cn1cc(C2=C(c3coc4ccccc34)C(=O)NC2=O)c2cc(Br)ccc21")
"inactive"
>>> value("COc1ccnc(CS(=O)c2nc3cc(OC(F)F)ccc3[nH]2)c1OC (stereo unspecified)")
"inactive"
>>> value("C/C=C/CCC1Cc2cc(O)c(CCCC)c(O)c2C(=O)O1 (stereo unspecified)")
"inactive"
>>> value("C=C1C(=O)O[C@@H]2C[C@]3(C)[C@@H](CCC(C)O)[C@@H]3C[C@H]12 (stereo partly specified)")
"inactive"
>>> value("Cc1cc(NC(=O)NCCN2CCC(O)(Cc3ccccc3)CC2)c2ccccc2n1")
"inactive"
>>> value("Cn1cc(-c2ccc(F)c(C(F)(F)F)c2)nc1C1CCN(c2ncnc3[nH]ncc23)CC1")
"inactive"
>>> value("O=C1Cc2c([nH]c3ccc(Br)cc23)-c2ncccc2N1")
"inactive"
>>> value("CC1(C(=O)Nc2ccc(F)nc2)CCCN1c1nc(Nc2cc(C3CC3)[nH]n2)c2cccn2n1 (stereo unspecified)")
"5.01 µM (active)"
>>> value("C=CC1(C)CC(O)C(C(=C)C(=O)OC)C(O)C1C(=C)CO (stereo unspecified)")
"inactive"
>>> value("CC(C)Nc1nc(Nc2ccccc2)nc(-c2ccccc2)n1")
"inactive"
>>> value("O=C([C@@H]1CCCN(c2ccc3[nH]c(C4(n5cc(Cl)cn5)CC4)nc3n2)C1)N1CCCC1")
"inactive"
>>> value("COC1=CC(=O)O/C1=C(/OC)[C@@H]1O[C@H]1c1ccccc1")
"inactive"
